# Test system: P. falciparum Dd2-B2
# test: Blood-stage dose-response assay (72 hr), Dd2 / Dd2-B2 parent
# Format: cell-based
# condition.info: Plasmodium falciparum, DD2, read-out: Dd2-B2 parent EC50 ± SD (nM)
Threshold-based label: EC50 under 200 nM gives yes, EC50 not under 200 nM gives no.

{"columns": ["compound", "label.class"],
 "data": [
  ["OC(c1cc(C(F)(F)F)nc2c(C(F)(F)F)cccc12)C1CCCCN1 (stereo not drawn) [Mefloquine]", "yes"],
  ["O=C(NNC(=O)c1csnn1)c1ccc(Cl)cc1 [MMV084978]", "yes"],
  ["CCN(CC)Cc1cc(Nc2ccnc3cc(Cl)ccc23)ccc1O [Amodiaquine]", "yes"],
  ["CCN(CC)S(=O)(=O)c1ccc(Cl)c(C(=O)Nc2ccc3nc(C)sc3c2)c1 [MMV019721]", "no"],
  ["O=C1C(O)=C([C@H]2CC[C@H](c3ccc(Cl)cc3)CC2)C(=O)c2ccccc21 [Atovaquone, reference compound]", "yes"]
]}

Attention now turns to another entry.
Input line: Confirm or reject: EC50 of C[C@H]1[C@@H](O)O[C@@H]2O[C@@]3(C)CC[C@H]4[C@H](C)CC[C@@H]1[C@@]24OO3 [Dihydroartemisinin] lies strictly below 200 nM
Output line: yes
